Hello, the source for this data is patent US10844046B2, in case you need it.

Hi there, I'd appreciate the recorded Ki for every entry that follows.
- Target under test: 5-HT1A receptor (Homo sapiens)
- Construct: expressed in transfected cells; host or cells: HEK293
- Sequence (P08908 whole entry): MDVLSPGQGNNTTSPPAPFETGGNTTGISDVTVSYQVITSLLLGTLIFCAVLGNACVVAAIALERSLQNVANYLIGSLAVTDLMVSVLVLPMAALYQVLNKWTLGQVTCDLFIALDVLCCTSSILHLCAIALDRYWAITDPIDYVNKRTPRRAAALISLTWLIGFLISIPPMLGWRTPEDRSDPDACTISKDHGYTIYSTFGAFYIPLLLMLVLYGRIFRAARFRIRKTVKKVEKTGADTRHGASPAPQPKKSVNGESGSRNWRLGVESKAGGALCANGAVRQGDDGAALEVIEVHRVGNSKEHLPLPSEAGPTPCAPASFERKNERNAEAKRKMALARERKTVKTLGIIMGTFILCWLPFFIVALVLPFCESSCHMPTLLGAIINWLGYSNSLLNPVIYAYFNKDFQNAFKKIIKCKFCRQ
- Protocol: 5-HT1A radioligand binding assay
- Experimental setup: human recombinant (HEK293 cells), [3H]-8-OH-DPAT; read-out: pKi 5-HT1AR (converted)
Give bare numbers, in µM.

Known results for compounds:
compound=Cn1cncc1-c1cc2ccccc2[nH]1 assay_endpoint=Ki output_unit=µM reported_result=32.4
compound=CCn1cncc1-c1ccc2[nH]ccc2c1 assay_endpoint=Ki output_unit=µM reported_result=16.2
compound=COCCCn1cncc1-c1c[nH]c2ccc(OC)cc12 assay_endpoint=Ki output_unit=µM reported_result=12.3
compound=CCn1cncc1-c1c[nH]c2ccc(OCc3ccccc3)cc12 assay_endpoint=Ki output_unit=µM reported_result=34.7
compound=CCn1cncc1-c1c[nH]c2ccc(O)cc12 assay_endpoint=Ki output_unit=µM reported_result=0.288

Batch request: Ki for each of the following compounds.
1. CCn1cncc1-c1c[nH]c2ccccc12
2. CCn1cncc1-c1c[nH]c2ccc(C#N)cc12

1. 25.7
2. 105
